Tested on: CDKL1;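 note: KINOMEscan kinase panel screen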
Details: concentration: 1 μM, replicates: in singlicate; n = 1
Quick reference: %Inh of the listed items.
Numbers only here, please. The scale is %.

COMPOUND	MEASURED TARGET	RESULT VALUE
COc1ccccc1-c1ccc2c(NC(=O)C3CC3)n[nH]c2n1 [SB-711239]	CDKL1	18

%Inh in this record for Fc1cc(Cl)ccc1Nc1ccnc2cc(I)ccc12 [GW551191] : 0

%Inh in this record for Cc1ccc(C(=O)Nc2ccc(Nc3ccnc4cc(-c5ccccn5)ccc34)cc2O)cc1.Cl [GW440146] : 0

%Inh in this record for CN(C)CCN(C)C(=O)c1cc(-c2ccncc2)c(-c2ccc(Cl)c(O)c2)o1.Cl.Cl [SB-710397] : 0

%Inh in this record for Cl.c1ccc(-c2n[nH]cc2-c2ccnc(-c3ccc(CN4CCOCC4)cc3)c2)nc1 [GW776245] : 59

%Inh in this record for Cc1ccc(-c2cc(-c3c[nH]nc3-c3ccccn3)ccn2)cc1 [GW684088] : 0

%Inh in this record for Cc1ccc(NC(=O)Nc2cc(C(C)(C)C)nn2-c2ccccc2)cc1 [GSK1014915] : 15

%Inh in this record for O=c1cc(N2CCOCC2)nc2n(Cc3cccc(Cl)c3Cl)ccn12 [GSK2286295] : 0
